As shown below, each of these compounds has a reported melting point value.

// below: answered compounds
- Compound: "COC(=O)c1c(-c2ccco2)ccnc1C(=O)c1nc(OC)cc(OC)n1"
  Test result: "135 to 140 °C"
- Compound: "CC1CN(c2cc3ccccc3c(=O)[nH]2)CCN1 (stereo not given)"
  Test result: "164 to 167 °C"

# next compound below
Give the measured melting point for "CC1(C)CC(N(CCCCCCN(CCC(=O)O)C2CC(C)(C)NC(C)(C)C2)CCC(=O)O)CC(C)(C)N1" > 250 °C

----------
As shown below, each of these molecules has a reported melting point value.

- Molecule: "CCOC(=O)C1=C(C)NC(SCc2ccc(OC)cc2)=NC1c1cccc([N+](=O)[O-])c1 (centres undefined)"
  melting point: "95 to 97 °C"
- Molecule: "COc1ncccc1-c1ncc(OC2SCC(O)C(O)C2O)cc1F (centres undefined)"
  melting point: "141 °C"
- Molecule: "Cc1c(C)c2c(c(C)c1O)CCC(C)(C(=O)N1CCC(c3ccc(N)cc3)CC1)O2 (centres undefined)"
  melting point: "153 to 154 °C"
- Molecule: "O=C1COc2cc(NC(=O)C(=O)N3CCC(OCc4ccccc4)CC3)ccc2N1"
  melting point: "232 to 236 °C"
- Molecule: "COc1nc2ccccc2cc1NC(=O)N1CCN(c2cccc(Cl)c2)CC1"
  melting point: "97 to 98 °C"
- Molecule: "CCCCCCCc1ccc(-c2cnc(-c3ccc(OCCCCCC)c(F)c3)nc2)cc1"
  melting point: "80.5 °C"
- Molecule: "CCCCOc1cc(C(=O)O)cc([N+](=O)[O-])c1-c1ccccc1"
  melting point: "133 to 134 °C"
- Molecule: "CC(C)N(C(C)C)S(=O)(=O)N[C@@H](Cc1ccc(Oc2nccc3cnccc23)cc1)C(=O)O"
  melting point: "112 °C"

# next molecule below
Give the measured melting point for "CC(C)(C)OC(=O)Cn1c(=O)n(Cc2ccccc2)c2ccccc21" 99 to 100 °C
